compounds and their reported TGI
- System: BT-549 breast
- method description: NCI tumour cell line growth inhibition, 48 h
Report the figure in µM without appending any unit label.

Examples with their reported TGI follow.
1. CC(C)(C)OC(=O)NC(Cc1ccccc1)OCc1ccccc1 (centres undefined)    55.2
2. O=C1C=CC2(C=C1)O[C@H](Cc1ccccc1)[C@@H](Cc1ccccc1)O2    0.563
3. COC1C=COC2(C)Oc3c(C)c(O)c4c(c3C2=O)/C(=N/C2CCC(O)OC2C)C=C(NC(=O)/C(C)=C\C(=O)C2CC2C(O)C(C)C(O)C(C)C(OC(C)=O)C1C)C4=O (centres undefined)    6.28
4. CN(C)CCCN1c2ccccc2Sc2ccc3ccccc3c21    26.3
5. O=C1OCC2=C1C(c1ccc(Cl)c(Cl)c1)c1cc3c(cc1N2CCO)OCCO3 (centres undefined)    15.5

Query: What value of measured TGI is listed for O=C1c2ccccc2-c2cc([N+](=O)[O-])c([N+](=O)[O-])cc21 ?
Reply: 3.79

Query: What value of measured TGI is listed for N#Cc1c(N2CCOCC2)nc(=S)[nH]c1-c1ccco1 ?
Reply: 18.1

Query: What value of measured TGI is listed for O=C(/C=C/c1cc2ccccc2[nH]c1=O)/C=C/c1cc2ccccc2[nH]c1=O ?
Reply: 12.4

----------
compounds and their reported TGI
- System: EKVX NSCLC
- method description: NCI tumour cell line growth inhibition, 48 h

1. Cc1ccc2c(C3Cc4ccccc4N3C(=O)/C=C\C(=O)O)c(C)[nH]c2c1 (stereo unspecified)    > 100 µM
2. Cc1cccc(C)c1NC(=O)/C(=N/NC(N)=S)C(C)C(=O)c1ccc(Cl)cc1 (stereo unspecified)    > 100 µM
3. CC(=O)/C=C/c1cn(C(=O)OC(C)(C)C)c2ccc(Br)cc12    84.3 µM

Query: What value of measured TGI is listed for CCN(CC)CC1CCCCN1CC(=O)N1c2ccccc2C(=O)Nc2cccnc21 (stereo unspecified) ?
Reply: > 100 µM

Query: What value of measured TGI is listed for Cc1ccc(/C=N\NC(=O)c2[nH]c3ccc(F)cc3c2-c2ccccc2)cc1 ?
Reply: > 100 µM

----------
molecules and their reported TGI
- Tested on: SK-OV-3 ovarian
- method description: NCI tumour cell line growth inhibition, 48 h

1) C/C(=N\Nc1ccc([N+](=O)[O-])cc1[N+](=O)[O-])c1sc(-n2nc(-c3ccccc3)cc2-c2ccccc2)nc1C    > 100 µM
2) COc1ccc2cc1Oc1ccc(cc1)C[C@H]1c3c(cc4c(c3Oc3cc5c(cc3OC)CCN(C)[C@@H]5C2)OCO4)CCN1C    12.5 µM
3) O=C1CC(c2c[nH]c3ccccc23)C(=O)N1 (centres undefined)    > 100 µM

Consider the additional molecule presented here.
Query: Please tell me: TGI of OCC1OC(n2cnc3c(N/N=C\c4ccccn4)ncnc32)C(O)C1O (centres undefined) , system SK-OV-3 ovarian?
Reply: 2.97 µM

----------
- Test system: HT29 colon
- method description: NCI tumour cell line growth inhibition, 48 h
compounds and their reported GI50

Query: What value of measured GI50 is listed for CNCCCNCCCCNCCCN1C(=O)c2ccc3c4c(ccc(c24)C1=O)C(=O)N(CCCNCc1ccccc1OC)C3=O ?
Reply: 3.36 µM

Query: What value of measured GI50 is listed for FC(F)(F)c1ccc(-c2cnc(-c3ncon3)nc2NC2CCCCCC2)cc1 ?
Reply: 34.7 µM

Query: What value of measured GI50 is listed for CO/N=C(/C)c1ccc(NC(=O)CSc2nnc(-c3ccncc3)n2-c2ccccc2)cc1 ?
Reply: > 100 µM
